Target: human vasopressin (hV2) receptor (Homo sapiens)
Sequence (P30518 whole entry): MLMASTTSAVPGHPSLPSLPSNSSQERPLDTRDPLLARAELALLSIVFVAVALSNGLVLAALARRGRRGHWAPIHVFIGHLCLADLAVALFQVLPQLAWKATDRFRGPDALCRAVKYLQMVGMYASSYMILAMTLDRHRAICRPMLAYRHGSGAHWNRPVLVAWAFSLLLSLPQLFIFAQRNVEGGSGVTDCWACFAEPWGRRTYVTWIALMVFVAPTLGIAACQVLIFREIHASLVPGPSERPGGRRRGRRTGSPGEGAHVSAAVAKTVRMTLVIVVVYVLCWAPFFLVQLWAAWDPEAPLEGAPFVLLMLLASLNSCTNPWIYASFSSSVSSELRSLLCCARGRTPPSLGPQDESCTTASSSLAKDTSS
Test: luciferase-based transcriptional reporter gene assay expressing the human vasopressin (hV2) receptor
Starred links: 1 amine or outer side, 2 acyl side, 3 side chain; linkers in the order of their positions; H or OH if unused. Positions of bridges follow the written chain, without caps; N, C: chain ends. Non-standard residues stand in square brackets, D forms with d. Residues, ends and D or L forms follow the SMILES beside them. N(3-phenylpropyl)Gly = O=C(O)CNCCCc1ccccc1; Phe(4-Et) = CCc1ccc(C[C@H](N)C(=O)O)cc1; X1 = O=C(CN(Cc1ccc(F)c(F)c1)[*:1])[*:2]; X4 = Cc1ccc(CCN(CC(=O)[*:2])[*:1])cc1; cisHyp = O=C(O)[C@@H]1C[C@H](O)CN1; X2 = O=C(CCC[*:2])[*:1]; Mpa = O=C(O)CCS
Property name: EC50 (µM)
Give the number; µM is assumed, so skip it.

Answered cases to consult:
CC[C@H](C)[C@@H]1NC(=O)[C@H](Cc2ccc(O)cc2)NC(=O)CCSSC[C@@H](C(=O)N(CC(=O)N[C@@H](CC(C)C)C(=O)NCC(N)=O)Cc2ccc(F)c(F)c2)NC(=O)[C@H](CC(N)=O)NC(=O)[C@H](CCC(N)=O)NC1=O [Compound 11] ([Mpa]YIQNC[X1]LG-NH2; disulfide 1-6)	0.0585
CCc1ccc(C[C@@H]2NC(=O)CCCSC[C@@H](C(=O)N3C[C@@H](O)C[C@H]3C(=O)N[C@@H](CC(C)C)C(=O)NCC(N)=O)NC(=O)[C@H](CC(N)=O)NC(=O)[C@H](CCC(N)=O)NC(=O)[C@H]([C@@H](C)CC)NC2=O)cc1 [Compound 6] ([Phe(4-Et)]IQNC[cisHyp]LG-NH2; linker N-5 via X2)	0.0399
CC[C@H](C)[C@@H]1NC(=O)[C@H](Cc2ccc(O)cc2)NC(=O)CCSSC[C@@H](C(=O)N(CCCc2ccccc2)CC(=O)N[C@@H](CC(C)C)C(=O)NCC(N)=O)NC(=O)[C@H](CC(N)=O)NC(=O)[C@H](CCC(N)=O)NC1=O [Compound 25] ([Mpa]YIQNC[N(3-phenylpropyl)Gly]LG-NH2; disulfide 1-6)	0.159

Next, consider the following compound.
Record CC[C@H](C)[C@@H]1NC(=O)[C@H](Cc2ccc(O)cc2)NC(=O)CCSSC[C@@H](C(=O)N(CCc2ccc(C)cc2)CC(=O)N[C@@H](CC(C)C)C(=O)NCC(N)=O)NC(=O)[C@H](CC(N)=O)NC(=O)[C@H](CCC(N)=O)NC1=O [Compound 15] ([Mpa]YIQNC[X4]LG-NH2; disulfide 1-6) , field EC50: 0.102

Values from patent US8673841B2
